Target: KAT6B (Homo sapiens (Human), UniProt Q8WYB5)
Sequence (Q8WYB5 whole entry): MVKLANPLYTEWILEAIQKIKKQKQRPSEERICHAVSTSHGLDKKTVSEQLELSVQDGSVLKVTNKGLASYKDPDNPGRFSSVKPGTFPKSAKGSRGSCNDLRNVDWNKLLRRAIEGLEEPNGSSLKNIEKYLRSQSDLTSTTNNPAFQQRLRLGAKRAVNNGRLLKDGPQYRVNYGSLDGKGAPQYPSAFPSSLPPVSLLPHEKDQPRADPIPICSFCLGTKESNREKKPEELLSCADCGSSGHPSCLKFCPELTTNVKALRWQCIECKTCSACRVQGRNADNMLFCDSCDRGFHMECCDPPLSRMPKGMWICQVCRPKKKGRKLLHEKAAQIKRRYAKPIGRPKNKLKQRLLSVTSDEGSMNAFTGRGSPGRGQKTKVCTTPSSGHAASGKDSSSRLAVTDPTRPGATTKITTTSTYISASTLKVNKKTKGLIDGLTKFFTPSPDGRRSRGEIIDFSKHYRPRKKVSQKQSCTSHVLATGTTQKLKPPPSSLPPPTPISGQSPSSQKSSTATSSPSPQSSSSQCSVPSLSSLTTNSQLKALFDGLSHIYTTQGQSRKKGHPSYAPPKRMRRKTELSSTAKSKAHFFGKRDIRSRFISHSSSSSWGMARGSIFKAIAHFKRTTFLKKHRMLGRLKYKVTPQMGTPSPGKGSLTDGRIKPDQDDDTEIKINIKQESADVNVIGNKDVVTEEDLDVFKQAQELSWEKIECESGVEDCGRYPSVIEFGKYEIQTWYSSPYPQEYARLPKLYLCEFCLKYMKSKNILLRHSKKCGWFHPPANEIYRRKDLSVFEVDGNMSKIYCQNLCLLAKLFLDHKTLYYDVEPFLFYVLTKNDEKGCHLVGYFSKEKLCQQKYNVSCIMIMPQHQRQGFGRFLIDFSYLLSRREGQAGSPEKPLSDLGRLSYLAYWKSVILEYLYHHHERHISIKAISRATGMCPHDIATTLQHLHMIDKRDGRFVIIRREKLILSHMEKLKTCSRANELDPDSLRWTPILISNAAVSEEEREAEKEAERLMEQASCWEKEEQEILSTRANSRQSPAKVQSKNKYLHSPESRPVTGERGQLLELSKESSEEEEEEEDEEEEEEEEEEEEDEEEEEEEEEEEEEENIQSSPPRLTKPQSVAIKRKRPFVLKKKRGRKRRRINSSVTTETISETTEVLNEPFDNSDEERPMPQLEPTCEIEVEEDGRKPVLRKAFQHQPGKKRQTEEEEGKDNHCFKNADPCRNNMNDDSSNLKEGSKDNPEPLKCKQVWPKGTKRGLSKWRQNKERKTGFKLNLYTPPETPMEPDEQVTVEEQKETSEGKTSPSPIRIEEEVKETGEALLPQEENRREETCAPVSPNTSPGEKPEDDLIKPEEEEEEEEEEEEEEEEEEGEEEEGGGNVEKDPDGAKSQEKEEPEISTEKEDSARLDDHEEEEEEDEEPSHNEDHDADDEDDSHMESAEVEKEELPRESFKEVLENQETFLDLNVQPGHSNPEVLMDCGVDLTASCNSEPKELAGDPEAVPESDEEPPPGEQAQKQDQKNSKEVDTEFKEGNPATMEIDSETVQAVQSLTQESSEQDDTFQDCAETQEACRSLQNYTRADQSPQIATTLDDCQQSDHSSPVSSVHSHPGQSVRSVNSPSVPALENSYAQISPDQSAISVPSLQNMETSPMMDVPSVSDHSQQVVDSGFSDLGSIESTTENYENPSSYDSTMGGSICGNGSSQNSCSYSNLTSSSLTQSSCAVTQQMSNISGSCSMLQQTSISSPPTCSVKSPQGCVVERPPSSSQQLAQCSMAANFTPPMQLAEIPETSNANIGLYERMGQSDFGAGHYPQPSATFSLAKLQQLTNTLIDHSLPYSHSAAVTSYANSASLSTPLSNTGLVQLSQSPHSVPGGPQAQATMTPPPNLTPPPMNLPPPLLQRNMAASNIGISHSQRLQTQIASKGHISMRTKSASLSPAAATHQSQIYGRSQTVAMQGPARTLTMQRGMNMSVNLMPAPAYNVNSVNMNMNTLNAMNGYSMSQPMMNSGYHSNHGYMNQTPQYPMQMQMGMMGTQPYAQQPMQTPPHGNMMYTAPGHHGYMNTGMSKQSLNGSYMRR
Test: KAT assay (SAMDI mass spectrometry), KAT6B
Assay type: biochemical
Settings: read-out: KAT6b Ki at 1 μM AcCoA; 1 μM AcCoA
Give Ki for every item shown.
Please give a number only; it is taken to be in nM.

Quick check: Ki of COc1cc2c(cc1S(=O)(=O)Nc1noc3cc(Cn4cccn4)cc(OC)c13)CCCC2 ? 1.78

Recorded Ki for COCc1ccc(OC)c(S(=O)(=O)Nc2noc3cc(Cn4cccn4)cc(OC)c23)c1 , please? 1.88

// query Ki value for entry COc1cccc(OC)c1S(=O)(=O)Nc1noc2cc(Cn3cccn3)cc(OC(C)C)c12 2.27
